- System: farm ants
- METHOD DESCRIPTION: Repellent effect on farm ants (treated filter paper)
- Format: in vivo
- TEST CONDITIONS: Day 1
sec. on T surface values by entry
Return type: number; implicit unit s.

Study these solved cases before continuing.
C=CC(C)(CCC=C(C)C)OC(=O)c1ccccc1N (stereo not drawn) [linalyl anthranilate] | 104.6
CC1=CCC2CC1C2(C)C (stereo not drawn) | 139.2
Cc1ccc(C(C)C)cc1 | 133.6

Report sec. on T surface, nothing else, for this compound: `NCc1ccc2c(c1)OCO2`
111.2

Give a short answer stating reported sec. on T surface for C=CC(C)(O)CCC=C(C)C (stereo not drawn) .
111.2

Using the record for `O=Cc1ccc2c(c1)OCO2` , state its measured sec. on T surface.
125.8

----------
- TARGET: Or43a receptor (Drosophila melanogaster, UniProt P81917, L154V)
- Construct: His (from vector pAc5.1/V5-His B) (C)
- Sequence (P81917 whole entry L154V): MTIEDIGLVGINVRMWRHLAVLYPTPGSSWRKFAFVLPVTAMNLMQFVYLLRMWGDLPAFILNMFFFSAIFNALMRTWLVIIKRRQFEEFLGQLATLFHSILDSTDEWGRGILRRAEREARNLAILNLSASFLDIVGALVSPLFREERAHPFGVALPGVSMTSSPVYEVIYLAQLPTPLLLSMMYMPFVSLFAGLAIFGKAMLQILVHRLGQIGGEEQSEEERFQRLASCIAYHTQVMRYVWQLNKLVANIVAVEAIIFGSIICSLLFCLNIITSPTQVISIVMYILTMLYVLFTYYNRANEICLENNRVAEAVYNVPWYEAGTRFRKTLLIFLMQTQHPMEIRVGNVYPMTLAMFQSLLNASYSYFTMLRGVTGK
- METHOD DESCRIPTION: biochemical
METRIC: Kd

Check the records and state Kd for `NCCc1ccc(O)cc1`
~13.5 nM

----------
- TARGET: tyramine receptor (TyrR) (Drosophila melanogaster, UniProt P22270)
- Sequence (P22270 27-601): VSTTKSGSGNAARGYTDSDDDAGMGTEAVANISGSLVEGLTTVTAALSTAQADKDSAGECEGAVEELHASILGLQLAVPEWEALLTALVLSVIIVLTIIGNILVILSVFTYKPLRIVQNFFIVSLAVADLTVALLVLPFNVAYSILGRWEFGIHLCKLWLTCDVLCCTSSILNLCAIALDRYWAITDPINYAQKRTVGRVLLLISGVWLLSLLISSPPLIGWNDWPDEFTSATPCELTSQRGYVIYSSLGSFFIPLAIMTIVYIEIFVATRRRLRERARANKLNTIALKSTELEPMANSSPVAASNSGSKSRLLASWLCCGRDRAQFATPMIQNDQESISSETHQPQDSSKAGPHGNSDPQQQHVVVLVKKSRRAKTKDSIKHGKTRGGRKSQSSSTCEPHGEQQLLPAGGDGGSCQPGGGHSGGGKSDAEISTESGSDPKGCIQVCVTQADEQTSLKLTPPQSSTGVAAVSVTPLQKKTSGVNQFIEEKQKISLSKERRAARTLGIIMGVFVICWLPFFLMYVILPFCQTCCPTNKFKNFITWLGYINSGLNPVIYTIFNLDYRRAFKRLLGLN
METRIC: Kd

For the compound NCCc1ccc(O)cc1 [^3H-tyramine] , give its reported Kd.
~1.26 nM

----------
- Tested on: farm ants
- METHOD DESCRIPTION: Repellent effect on farm ants (treated filter paper)
- Assay type: in vivo
- TEST CONDITIONS: Day 1
Catalogue of compounds with associated Repellency %, R %
Report the figure in % without appending any unit label.

# annotated cases, reported Repellency %, R % shown
C=CC(C)(CCC=C(C)C)OC(=O)c1ccccc1N (stereo not drawn) [linalyl anthranilate] | 30.7
O=Cc1ccc2c(c1)OCO2 | 16.1
CC1=CCC2CC1C2(C)C (stereo not drawn) | 07.2
Cc1ccc(C(C)C)cc1 | 10.9
C=CC(C)(O)CCC=C(C)C (stereo not drawn) | 25.9

Turning to the following compound.
Respond only with Repellency %, R % recorded for `NCc1ccc2c(c1)OCO2`
25.9

----------
- TARGET: Or43a receptor (Drosophila melanogaster, UniProt P81917, L154V)
- Construct: His (from vector pAc5.1/V5-His B) (C)
- METHOD DESCRIPTION: biochemical
METRIC: Ki (µM)
Numeric answer only, unit µM assumed.

Identify measured Ki corresponding to `NCCc1ccc(O)cc1`
0.0135
